tested on: LXRa:RXRa (NR concentration 270 nM, RXRa partner concentration 90 nM); assay: PBM binding z-score (relative to random genomic background probes); higher = stronger binding; sequences stand for … in GC…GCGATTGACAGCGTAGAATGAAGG
Exercise: for every item that follows, state its recorded PBM binding z-score.
Hey, just send me the number, nothing else.

get_value(item= CCTTACGGGTCACTGACAGGTTACAGCATTTGGA , readout=PBM binding z-score) returns 3.93

AATACAGGGTCAGTAGGCCAGAGTAGGTACGAAT yielded PBM binding z-score of 3.63

PBM binding z-score for CCAGACAAGTGAGAAGGTAACTCAGCCTCGATTA is 0.185

Reported PBM binding z-score for TCTTGTAGATCAGCTGGTTAAGAAAGCTGGCCAA was -0.146

For GCTTGCGGGTCAAAGGTTATAGCATGAATAGAAT the sequence record lists PBM binding z-score as 5.1

Lab note: measured PBM binding z-score of AATACAGGGTCTCTAGGCCAGAGTAGGTACGAAT was -0.38

# sequence TAGCCTAGGTCATGGGCCATTATACCACGCGAAC ; its PBM binding z-score = 3.37

###

system: PPARg homodimer (NR concentration 180 nM); experiment: PBM binding z-score (relative to random genomic background probes); higher = stronger binding; sequences stand for … in GC…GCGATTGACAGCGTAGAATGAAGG
metric_name: PBM binding z-score
Answer using only a numeral; do not append any unit.

Per the records, this sequence ( TAGCCTAGCTCATGCGGGCCAGTATAGTGTCGGC ) has PBM binding z-score equal to -1.61

Sure, the documented PBM binding z-score for GTACCAAGGTGAATAGCTCGTTGATGAGTAGGCG is -0.135

Looking up CCTGCTAGGTAATGGTCAGCTAATCTACAGTATG , I found its PBM binding z-score recorded as -0.722

Entry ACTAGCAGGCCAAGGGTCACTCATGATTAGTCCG — recorded PBM binding z-score = 2.62

Note to self: PBM binding z-score recorded for ACTATTAGTTGAGACCAGGGCAACCGATAGGTTG was -0.00507

For reference, reported PBM binding z-score for CCTCGTAGGACAGAAGGTCAGAGCTGTCCGCTTT stands at 1.25

The value of PBM binding z-score measured for the sequence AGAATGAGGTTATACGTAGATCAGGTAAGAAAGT turned out to be 0.811

The measured PBM binding z-score associated with CTCGAAAGGTCGTGCTCAGGTGAGCATACCAAAC reads 3.06

Briefly, PBM binding z-score measured for TCATATAGGTAAATGCTAGGTGCAAGTCCGATCT : 0.912

PBM binding z-score measured on TCGAGTAGGTTAGGGCCATTCAGAATGGCGTCGA = -0.315

Recorded result, CCTTCCGGGTCACGAGGTTATAGCACGACGAGCG , PBM binding z-score: 2.53

PBM binding z-score reading for AACGAAAGGTCGTGAGGTGAGTATACAGAAAGGC : 1.96

Item: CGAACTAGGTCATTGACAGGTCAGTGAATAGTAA | PBM binding z-score: 3.26

Record ATATGTAGGTTACATCCGGGGCATTCAGGCTATG , field PBM binding z-score: 0.96

# PBM binding z-score (sequence: ATCTCTAGGTAAAAGATCAGTGAATCCCGAGGAT ) is 0.847

Record summary for CAAACTCGGTCACCGGAAGGTCAAAGTCCGCATG : reported PBM binding z-score = 4.4

Entry GTACCAAGGTGAATAGATCGTTGATGAGTAGGCG , PBM binding z-score reported as 0.785
